Tested on: BDF1 mice, Lewis lung carcinoma iv, survival T/C
PROCEDURE DETAILS: NCI In Vivo Anticancer Drug Screen. Data for tumor model Lewis Lung Carcinoma (intravenous) in B6D2F1 (BDF1) mice
MEASUREMENT SETUP: endpoint: median survival time; dose: 50.0 mg/kg/injection; schedule: Q01DX009 (ip); vehicle: saline with Tween-80; higher = longer survival
Inconclusive results and toxic doses are left out.
RESULT TYPE: T/C

• CC(=O)N(C)O = 90 % of control
• CCCCCCCCCCCCCCCCCCCCCC(=O)Nc1ccn(C2OC(CO)C(O)C2O)c(=O)n1 (stereo not drawn) = 124 % of control

Give T/C for the following molecule: `Nc1ccc(Cl)cc1N`
99 % of control

----------
Test system: BDF1 mice, Lewis lung carcinoma iv, survival T/C
PROCEDURE DETAILS: NCI In Vivo Anticancer Drug Screen. Data for tumor model Lewis Lung Carcinoma (intravenous) in B6D2F1 (BDF1) mice
MEASUREMENT SETUP: endpoint: median survival time; dose: 16.0 mg/kg/injection; schedule: Q01DX009 (ip); vehicle: saline; higher = longer survival
Toxic doses and inconclusive results are not listed.
RESULT TYPE: T/C

• CC1OC(O[C@H]2/C=C/C=C/C=C/C=C/C=C/C=C/C=C/[C@H](C)[C@@H](O)[C@@H](C)[C@H](C)OC(=O)C[C@H](O)C[C@H](O)CC[C@@H](O)[C@H](O)C[C@H](O)C[C@]3(O)C[C@H](O)[C@@H](C(=O)O)[C@H](C2)O3)C(O)C(N)C1O (stereo not given in full) = 124 % of control
• O=c1[nH]cc(F)c(=O)[nH]1 = 107 % of control
• CC[C@H]1CN2CCc3cc(OC)c(OC)cc3[C@@H]2C[C@@H]1C[C@H]1NCCc2cc(O)c(OC)cc21 = 116 % of control
• Nc1ccn(C2OC(COP(=O)(O)O)C(O)C2O)c(=O)n1 (stereo not given) = 121 % of control

Let's switch to this molecule now.
// fetch T/C for `COC(=O)Nc1cccc(-c2nc3ccc(NC(=O)OC)cc3c(=O)n2-c2ccccc2)c1` ; system: BDF1 mice, Lewis lung carcinoma iv, survival T/C
97 % of control

----------
System: BDF1 mice, Lewis lung carcinoma iv, survival T/C
PROCEDURE DETAILS: NCI In Vivo Anticancer Drug Screen. Data for tumor model Lewis Lung Carcinoma (intravenous) in B6D2F1 (BDF1) mice
MEASUREMENT SETUP: endpoint: median survival time; dose: 400.0 mg/kg/injection; schedule: Q01DX009 (ip); vehicle: Klucel (hydroxypropylcellulose) (HPC); higher = longer survival
Inconclusive results and toxic doses are left out.
RESULT TYPE: T/C

* COc1cc(C)c(C2NC(=O)c3ccccc3N2)cc1C (stereo not drawn) | 101 % of control
* CN(C1=NS(=O)(=O)N=C(N(C)c2ccccc2)O1)c1ccccc1 | 102 % of control
* O=Cc1ccc(C=O)c(Cl)c1 | 95 % of control
* COc1ccc2ccccc2c1C1NC(=O)c2ccccc2N1 (stereo not drawn) | 102 % of control
* CN(C)c1ccc2c(SCC(=O)OCC(=O)[C@@]3(O)CC[C@H]4[C@@H]5CCC6=CC(=O)C=C[C@]6(C)[C@H]5C(=O)C[C@@]43C)c3ccc(N(C)C)cc3nc2c1 | 107 % of control
* OC(CBr)C(O)C(O)C(O)CBr (stereo not drawn) | 111 % of control

Give T/C for the following compound: S=C(Nc1ccc(Cl)c(Cl)c1)N1c2ccccc2-n2cccc2C1c1cccnc1 (stereo not drawn)
115 % of control

Give T/C for the following compound: Cc1ccc(NCC2(/N=C/c3ccccc3)OC(CO)C(O)C2O)cc1 (stereo not drawn)
86 % of control

Give T/C for the following compound: `O=c1oc2c(O)c(O)cc3c(=O)oc4c(O)c(O)cc1c4c23`
121 % of control

Give T/C for the following compound: `O=C1CC2(C(=O)N1CN1CCOCC1)c1ccccc1-c1ccccc12`
112 % of control

Give T/C for the following compound: `COc1cc(C(=O)c2cocc2C(=O)c2ccc3c(c2)OCO3)cc(OC)c1OC`
94 % of control

Give T/C for the following compound: CC(=O)OCC1OC(n2ncc(=O)[nH]c2=O)C(OC(C)=O)C1OC(C)=O (stereo not drawn)
107 % of control

Give T/C for the following compound: Clc1ccc(C2SC=Cc3ccccc32)cc1 (stereo not drawn)
108 % of control

----------
Test system: BDF1 mice, Lewis lung carcinoma iv, survival T/C
PROCEDURE DETAILS: NCI In Vivo Anticancer Drug Screen. Data for tumor model Lewis Lung Carcinoma (intravenous) in B6D2F1 (BDF1) mice
MEASUREMENT SETUP: endpoint: median survival time; dose: 0.78 mg/kg/injection; schedule: Q01DX009 (ip); vehicle: saline; higher = longer survival
Inconclusive results and toxic doses are left out.
T/C values, listed per item

Example results:
• [Cl][Hg][Cl] = 93 % of control
• N=[N+]=CC(=O)OCC(N)C(=O)O (configuration not stated) = 98 % of control
• CCCNC1=C(C)C(=O)C2=C(C1=O)[C@H](COC(N)=O)[C@]1(OC)[C@@H]3N[C@@H]3CN21 = 100 % of control
• ClCC[Se](Cl)(Cl)c1ccccc1 = 98 % of control
• OCCN1CCN(CC/C=C2/c3ccccc3Sc3ccc(Cl)cc32)CC1 = 102 % of control
• C[CH2][Sn]([CH2]C)([O]S(C)(=O)=O)[O]S(C)(=O)=O = 98 % of control

Let's switch to this compound now.
Give T/C for the following compound: `CN(C)C(=O)c1cccc(COc2ccc(N3C(N)=NC(N)=NC3(C)C)cc2Cl)c1`
101 % of control

----------
T/C values, listed per item
Tested on: BDF1 mice, Lewis lung carcinoma iv, survival T/C
PROCEDURE DETAILS: NCI In Vivo Anticancer Drug Screen. Data for tumor model Lewis Lung Carcinoma (intravenous) in B6D2F1 (BDF1) mice
MEASUREMENT SETUP: endpoint: median survival time; dose: 5.0 mg/kg/injection; schedule: Q01DX009 (ip); vehicle: Klucel (hydroxypropylcellulose) (HPC); higher = longer survival
Toxic doses and inconclusive results are not listed. Numbered stars: 1 amine (or outer) side, 2 acyl side, 3 side chain; on linkers, the order of the positions; unused ones are H or OH. Square brackets hold non-standard residues; d marks the D form. Peptide text beside a SMILES is read from it. * marks the point of attachment. X2 = CCC(=O)CC1CC(C)CC(C(=O)[*:2])N1[*:1]; X1 = CCCCCCCCC(C)C(=O)*; Aib = CC(C)(N)C(=O)O; X3 = CC(CN(C)CCO)N*

* C[C@]12CC[C@H]3[C@@H](CCC4=C[C@@H](OC5OCC(OC6OC(CO)C(O)C(O)C6O)C(O)C5O)CC[C@@]43C=O)[C@@]1(O)CCC2C1=CC(=O)OC1 (stereo partly specified) | 122 % of control
* CC[PH+](CC)CC[S-].CC[PH+](CC)CC[S-].[Au+].[Au+] | 102 % of control
* O=C1C=CC(=O)N1c1ccc(Cl)cc1 | 96 % of control
* C=C1C(=O)OCC2C(C(=O)O)=CC3C(C)C(C)=CC123 (stereo unspecified) | 92 % of control

Give T/C for the following compound: COC1CC(CC2CCC(C)C(C(C)C(=O)O)O2)OC2(OC(C)(C3CCC(C)(C4OC(C5OC(O)(CO)C(C)CC5C)CC4C)O3)CC2C)C1C (stereo unspecified)
96 % of control

Give T/C for the following compound: CCCCCCCCC(C)C(=O)N1CCCC1C(=O)N1C(CC(=O)CC)CC(C)CC1C(=O)NC(C)C(=O)NC(C)(C)C(=O)NC(C)(C)C(=O)NC(C(=O)NC(C)C(=O)NC(C)(C)C(=O)NC(C)(C)C(=O)NC(C)CN(C)CCO)C(C)CC (stereo unspecified) (X1-P[X2]A[Aib][Aib]IA[Aib][Aib]-X3; configuration not given here)
104 % of control

----------
System: BDF1 mice, Lewis lung carcinoma iv, survival T/C
PROCEDURE DETAILS: NCI In Vivo Anticancer Drug Screen. Data for tumor model Lewis Lung Carcinoma (intravenous) in B6D2F1 (BDF1) mice
MEASUREMENT SETUP: endpoint: median survival time; dose: 12.5 mg/kg/injection; schedule: Q01DX009 (ip); vehicle: saline
Inconclusive results and toxic doses are left out. Rule for the calls: active = survival T/C of 150% or more; inactive = T/C below 125% in these data.
Hi! Could you answer with just one of these? y (active), n (inactive)

Solved cases below.
- COc1cc2cc[n+](C)c(Cc3ccccc3)c2cc1OC: n
- CNc1nc(N(C)C)nc(N(C)C)n1: n
- C1OC1CO[C@@H]1CO[C@H]2[C@@H]1OC[C@H]2OCC1CO1 (some centres not stated): n
- CCOC(=O)C1=C(C#N)C2(CCC(OCc3ccccc3)CC2)C(=O)O1 (configuration not stated): n
- CCCNc1ncnc2c1cnn2C: n
- O=C(C1CO1)C(Cl)(Cl)Cl (configuration not stated): n

// param item: `C[CH2][Sn]([CH2]C)([O]S(C)(=O)=O)[O]S(C)(=O)=O` ; yields the recorded call
n

// param item: S=c1c2[nH]cnc2ncn1CCSC1=NC=NC2=NC=NC21 (configuration not stated) ; yields the recorded call
n

// param item: O=C1NC(O)CCN1C1OC(CO)C(O)C1O (configuration not stated) ; yields the recorded call
n

// param item: COc1nc(=O)n(C2C=CC(=O)O2)cc1F (configuration not stated) ; yields the recorded call
n

// param item: `c1ccc(CN2CCOC2)cc1` ; yields the recorded call
n
